# System: biotinyl-Trp-oxazolone
# methodDescription: self-aminoacylation, catalytic enhancement (BWO) (fold over background); higher = more active; k-Seq, kA / k0A0; sequences stand for … in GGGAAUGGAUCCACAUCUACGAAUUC…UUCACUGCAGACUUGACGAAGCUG
Fewer inactive variants are shown than the library holds.
assayEndpoint: self-aminoacylation
Note: the reply should be a number with no unit written.

For orientation, consider the following solved cases.
itemSequence | valueReported
CUGCUUCAAACAAUUGGUCUG [Fam1A.1 aminoacylation ribozyme variant] | 1.19
AAGUUUGCUAAUAUUCGCAGG [Fam3.1 aminoacylation ribozyme variant] | 2.04
CUACUUCAAACAAUCCGUCCG [Fam1A.1 aminoacylation ribozyme variant] | 0.751

Next, consider the following sequence.
// query Given the entry ACUCACCUAGGUAAUCGGGUG [Fam2.2 aminoacylation ribozyme variant] , report its measured self-aminoacylation.
// result 4.3

###

# System: biotinyl-Phe-oxazolone
# methodDescription: self-aminoacylation, catalytic enhancement (BFO) (fold over background); higher = more active; k-Seq, kA / k0A0; sequences stand for … in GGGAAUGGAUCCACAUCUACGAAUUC…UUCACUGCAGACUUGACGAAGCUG
Fewer inactive variants are shown than the library holds.
assayEndpoint: self-aminoacylation
# print the numeric value only

// query self-aminoacylation lookup needed for AUUACCCUGGUCGUCGCGUGA [Fam2.1 aminoacylation ribozyme variant] , thanks.
// result 48.7

// query Now try CAGUUUGCUAAUAGUCGCCAG [Fam3.1 aminoacylation ribozyme variant] .
// result 10.1

// query For CUUACCCCGGUCAUCGAGUGA [Fam2.1 aminoacylation ribozyme variant] then?
// result 19.8

// query And the next one, AUUCACCUAGGUCUUCGGUUG [Fam2.2 aminoacylation ribozyme variant] ?
// result 9.48

// query Quick one: AUUACCCUGGUCAGCGAGUGA [Fam2.1 aminoacylation ribozyme variant]
// result 16.6

// query And AUUCCCCUGGUCAUCGAGCGA [Fam2.1 aminoacylation ribozyme variant] ?
// result 8.04

// query Follow-up item: GCACACUUCAAGCAAUCCGUC [Fam1B.1 aminoacylation ribozyme variant]
// result 1.76

// query Also need CUACUUCAGACAAGCGGUCUG [Fam1A.1 aminoacylation ribozyme variant] , thanks.
// result 0.263

// query Note, next up: CCUCACUUCAAGGAAUCGGUC [Fam1B.1 aminoacylation ribozyme variant]
// result 6.28

###

# Tested on: biotinyl-Met-oxazolone
# methodDescription: self-aminoacylation, catalytic enhancement (BMO) (fold over background); higher = more active; k-Seq, kA / k0A0; sequences stand for … in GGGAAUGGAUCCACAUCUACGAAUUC…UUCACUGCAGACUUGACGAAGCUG
Variants at the floor of the assay were thinned out.
self-aminoacylation: recorded values
Answer field: number only, no words.

itemSequence | self-aminoacylation
AUUCCCCUAGGUCAUAGGGUG [Fam2.2 aminoacylation ribozyme variant] | 4.99
AUUACCCUGCUCAUCUAGUGA [Fam2.1 aminoacylation ribozyme variant] | 6.35
AUUCACCUAGGUGAUCUGGUG [Fam2.2 aminoacylation ribozyme variant] | 1.99
CUACUUCAAACAAUCGGUGAG [Fam1A.1 aminoacylation ribozyme variant] | 1.19
GGUCACCUAGGUCAUCGGGUG [Fam2.2 aminoacylation ribozyme variant] | 4.37

// query Requested field: self-aminoacylation. Item: CCACUUCAAACAAUCGGUGUG [Fam1A.1 aminoacylation ribozyme variant]
// result 1.79

// query What about this sequence? AUUACCCUGGUCAUCGAGUCU [Fam2.1 aminoacylation ribozyme variant]
// result 0.784

// query // next record ACACACUUCAAGAAAUCGGUC [Fam1B.1 aminoacylation ribozyme variant]
// result 1.41

Source listed as the supplement of paper PMC9233669.
